- measurement description: Solubility of apilimod vs pH in 0.1N HCl and Britton-Robinson buffers
- Type: physicochemical
- conditions: Britton-Robinson buffer, aqueous buffer, thermodynamic from solid; BRB pH 7, medium pH 7.18, prep. 2.7 mg/mL, room temperature, Day 3 pH 7.21; read-out: Conc Day 3
measured metric: solubility thermodynamic at 3 days

For Cc1cccc(/C=N/Nc2cc(N3CCOCC3)nc(OCCc3ccccn3)n2)c1 the compound record lists solubility thermodynamic at 3 days as < 0.1 µg/mL

---

- measurement description: Solubility of apilimod vs pH in 0.1N HCl and Britton-Robinson buffers
- Format: physicochemical
- conditions: simulated gastric fluid, thermodynamic from solid; pH 1 (0.1N HCl), medium pH 1.08, prep. 11 mg/mL, room temperature, Day 3 pH 1.44; read-out: Conc Day 3
measured metric: solubility at 3 days

For Cc1cccc(/C=N/Nc2cc(N3CCOCC3)nc(OCCc3ccccn3)n2)c1 [Apilimod] the compound record lists solubility at 3 days as > 10.7 mg/mL
